In this section we review reported cytotoxicity at 10 µM values for a set of compounds.
- Test: Toxicity liver stage against HepG2, at 10uM
- Assay type: cell-based
- Set-up: test concentration 10 uM, cell line HepG2-A16-CD81EGFP
- Applied conditions: human, HepG2-A16-CD81EGFP cells; read-out: INHIBITION
Give just the number in %; leave the unit off.

Would you please look over these solved cases?
compound="CCN1CC(C(=O)N2CC(Oc3ccccc3Cl)C2)CCC1=O (centres undefined)" measurement_type="cytotoxicity at 10 µM" numeric_value=-8.62
compound="c1cncc(CN(Cc2ccsc2)Cc2ccc(C3CCCCO3)o2)c1 (centres undefined)" measurement_type="cytotoxicity at 10 µM" numeric_value=14.8
compound=CCn1cc(C(=O)Nc2cc(C(=O)OC)ccc2C(=O)OC)cn1 measurement_type="cytotoxicity at 10 µM" numeric_value=-1.2
compound="Cc1nn(C)c(Cl)c1C1CCCN1C(=O)c1ccnn1C (centres undefined)" measurement_type="cytotoxicity at 10 µM" numeric_value=-4.87
compound="Cc1nc(CN2CCCC2c2ccsc2)nc2ccccc12 (centres undefined)" measurement_type="cytotoxicity at 10 µM" numeric_value=0.89
compound=CC(C)[C@H]1COC(=O)N1Cc1nncn1C(C)C measurement_type="cytotoxicity at 10 µM" numeric_value=-9.17

Record request: cytotoxicity at 10 µM value, item O=C(c1ccncc1)N1CCN2C[C@H](Oc3cncnc3)C[C@H]2C1
8.7

Would you kindly repeat that for O=C(Cc1cccs1)N1C[C@@H]2COC[C@]2(COCc2cccnc2)C1 ?
-2.8

Next entry: N#Cc1ccc(Cl)cc1N1CCC(OC2CCOCC2)CC1
3.99

Moving on to O=S(=O)(CCCN1CCCC(Cn2cncn2)C1)c1ccccc1 (centres undefined)
-11.7

Also need CN1CCC/C1=N\S(=O)(=O)c1ccc(NC(=O)c2ccsc2)cc1 , thanks.
6.49

Field entry: O=C(NCc1cccs1)c1nc2c(o1)CN(c1ncccn1)C2
-0.664

Another compound to look at: CS(=O)(=O)NCc1cnc2n1CCN(Cc1cccnc1)CC2
5.66

Okay, and Cc1cc(C)n(CCCn2cncc2-c2ccc3c(c2)CC(C)N3C)n1 (centres undefined) ?
0.94

For Cc1cc(N2CCC(C(=O)O)(n3ccc(C(C)(C)C)n3)CC2)nc(N)n1 then?
-5.6

---

Examples of molecules with documented cytotoxicity at 10 µM follow.
- Test: Toxicity liver stage against HepG2, at 10uM
- Format: cell-based
- Design: test concentration 10 uM, cell line HepG2-A16-CD81EGFP
- Applied conditions: human, HepG2-A16-CD81EGFP cells; read-out: INHIBITION
Write your answer as a measured quantity: the number, then the unit.

Field: example entries. Status: answers known.
molecule=N#Cc1c(Cl)nsc1NCc1cccnc1OCC(F)(F)F result=25.5%
molecule="COc1nc2ccccc2cc1C1CC(=O)Nc2n[nH]c(C3CCC3)c21 (stereo not drawn)" result=-13.5%
molecule="CCn1nc(C)c(CN2CCC(c3ccc(C(=O)O)cc3)C2)c1C (stereo not drawn)" result=4.22%
molecule=CN(Cc1nnc(C2CC2)n1C)C(=O)c1ccnc(OC2CCC2)c1 result=-1.01%
molecule=Cc1nc(CN2CCCN(CC(=O)N(C)C(C)(C)C#N)CC2)no1 result=9.5%
molecule=Cc1ncccc1-c1cc2cccnc2n1CCCNC(=O)C1CC1 result=2.18%
molecule=CCn1cc(CN2CCN(C(=O)N3CCOCC3)CC2)cn1 result=-52.8%
molecule="COc1cc(-c2cccc3c2OC(CN)C3)cc(OC)c1OC (stereo not drawn)" result=-42.6%

Attention now turns to another entry.
Name the reported cytotoxicity at 10 µM value associated with the molecule Cc1ccc(C)c(NCc2nc3n(n2)CCCCC3)c1
6.39%

Attribution: ChEMBL document CHEMBL4513216
